- Test system: Hs-578T
- experimentNotes: NCI tumour cell line growth inhibition, 48 h
Activity calls are given as the source filed them. No stated cut-off is given here; in the data, active = GI50 up to about 1.1 µM and inactive = higher.
metric: GI50

Output measured GI50 for this item: COC1CC(N)(c2ccccc2)C(O)C(C)O1 (centres undefined) > 100 µM (inactive)

Output measured GI50 for this item: `O=C(NC(=O)c1cc(-c2ccccc2)n[nH]1)c1ccccc1` > 100 µM (inactive)

Output measured GI50 for this item: CCc1cc2c(cc1CCCC(=O)O)CC1(Cc3ccc(C(=O)O)cc3C1)C2 (centres undefined) > 100 µM (inactive)

Output measured GI50 for this item: `O=[N+]([O-])c1ccc(Cl)cc1/C=N/C12CC3CC(CC(C3)C1)C2` 51.8 µM (inactive)

###

For each entry below, report its GI50 value.
- Tested on: NCI-H460
- experimentNotes: NCI tumour cell line growth inhibition, 48 h
Activity calls are given as the source filed them. Rule as the data show it: active = GI50 up to about 1.1 µM and inactive = higher.

Output measured GI50 for this item: `CC(=O)CC(=O)N1CCSC1=S` > 10 µM (inactive)

Output measured GI50 for this item: CC(C)CN(CC(C)C)C(=O)C1CCCC[C@@H]1C(=O)O (some centres undefined) > 100 µM (inactive)

Output measured GI50 for this item: `COc1cc([C@H]2CC(=O)C[C@@H](c3cc(OC)c(OC)c(OC)c3)C23C(=O)c2ccccc2C3=O)cc(OC)c1OC` > 100 µM (inactive)

Output measured GI50 for this item: `COc1cc([C@@H]2c3cc4c(c(O[C@@H]5O[C@H]6CO[C@@H](C)O[C@H]6[C@H](O)[C@@H]5O)c3C[C@H]3COC(=O)[C@@H]32)OCO4)cc(OC)c1O` 12.1 µM (inactive)

###

- Tested on: MDA-MB-231
- experimentNotes: NCI tumour cell line growth inhibition, 48 h
The source made the active and inactive calls. Cut-off read from the data, not from the text of the source: active = GI50 up to about 1.1 µM and inactive = higher.
Permitted responses: True = active, False = inactive

Tell me the recorded outcome of this test for `CCCn1c2c(c3ccccc3c1=O)C(=O)c1ccccc1-2` . False

Tell me the recorded outcome of this test for CNC(=O)OC1/C(C)=C\C(C)C(O)C(OC)CC(C)CC2=C(OC)C(=O)C=C(C2=O)N(C)C(=O)/C(C)=C/C=C\C1OC (centres undefined) . False

Tell me the recorded outcome of this test for O=C(O)CCC(NC(=O)c1ccc(OCc2nc3cc(C(F)(F)F)ccc3nc2-c2ccccc2)cc1)C(=O)O (centres undefined) . False

Tell me the recorded outcome of this test for `c1ccc2c(NCCCCCCCCNc3c4ccccc4nc4ccccc34)c3ccccc3nc2c1` . True

###

- System: NCI-H226
- experimentNotes: NCI tumour cell line growth inhibition, 48 h
Activity calls are given as the source filed them. No stated cut-off is given here; in the data, active = GI50 up to about 1.1 µM and inactive = higher.
Permitted responses: Y (active), N (inactive)

Tell me the recorded outcome of this test for `CC1=C(C(=O)Nc2ccc([N+](=O)[O-])cc2)C(c2ccco2)C(C(=O)Nc2ccc([N+](=O)[O-])cc2)=C(C)N1` . N

Tell me the recorded outcome of this test for `Cc1c2ccccc2c(C)n2c1nc1cc(Cl)c(Cl)cc12` . Y

Tell me the recorded outcome of this test for `NC(=S)N/N=C(/CC(=O)c1ccc([N+](=O)[O-])cc1)C(=O)Nc1ncc([N+](=O)[O-])s1` . N

###

- Test system: NCI-H460
- experimentNotes: NCI tumour cell line growth inhibition, 48 h
Active and inactive are the calls of the source. No stated cut-off is given here; in the data, active = GI50 up to about 1.1 µM and inactive = higher. Where a SMILES comes first, the peptide text is derived from it. [ ]: non-standard residue; d: D form. The star is where a group is joined. Bn2Val = CC(C)[C@@H](C(=O)*)N(Cc1ccccc1)Cc1ccccc1; NH(3,4-diMeO-benzyl) = COc1ccc(CN*)cc1OC; NMeV = CN[C@H](C(=O)O)C(C)C
metric: GI50

Report GI50 from NCI-H460 testing of COc1ccc(CNC(=O)[C@@H]2CCCN2C(=O)[C@@H]2CCCN2C(=O)[C@H](C(C)C)N(C)C(=O)[C@@H](NC(=O)[C@H](C(C)C)N(Cc2ccccc2)Cc2ccccc2)C(C)C)cc1OC (Bn2Val-V[NMeV]PP-{NH(3,4-diMeO-benzyl)}) 13.5 µM (inactive)

Report GI50 from NCI-H460 testing of Cc1cccc(C2SCc3nc4ccccc4n32)c1 (centres undefined) 27.7 µM (inactive)

Report GI50 from NCI-H460 testing of CC1=C[C@]2(CC(C)C3C(CC4(C)C5CCC6C(C)(C)C(=O)CC[C@@]67C[C@@]57CC[C@]34C)O2)OC1=O (some centres undefined) 19.4 µM (inactive)

Report GI50 from NCI-H460 testing of Cn1c2c(c3ccccc31)C1C(=O)N(c3ccccc3)C(=O)C1CC2 (centres undefined) > 303 µM (inactive)
